Measured values drawn from the supplement of paper PMC10567573 for this set.

B1: NP_009172.2 (parent)
chain: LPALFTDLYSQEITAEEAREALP

# Variants of: B1
# Protocol: protein stability index of a GFP-peptide fusion (GPS, HEK-293T) (PSI 1-6); higher = more stable;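 note: lentivirally expressed fusion library, cells FACS-sorted into six equal-sized GFP/DsRed ratio bins, PSI computed from sequencing read fractions per bin weighted by bin number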
# Experimental context: c terminus: native
Param threshold (3) applies to protein stability index; output 1.0 when value >= threshold, 0.0 when value < threshold.

{"Seq string": "LPALFTDLYSQEITAEEFREALP [A18F]", "Label value": 0.0}

Item LPALFTDLYSQEITAEEAREALR [P23R] with protein stability index of 3 or above?
0.0

Item LPALFTWLYSQEITAEEAREALP [D7W] with protein stability index of 3 or above?
0.0

Item LPALRTDLYSQEITAEEAREALP [F5R] with protein stability index of 3 or above?
1.0

Item LPALFTDLYDQEITAEEAREALP [S10D] with protein stability index of 3 or above?
0.0

Item LPALFTDLYSQEWTAEEAREALP [I13W] with protein stability index of 3 or above?
0.0

Item LPALFTDLYSQEYTAEEAREALP [I13Y] with protein stability index of 3 or above?
0.0

Item LPWLFTDLYSQEITAEEAREALP [A3W] with protein stability index of 3 or above?
0.0

Item LWALFTDLYSQEITAEEAREALP [P2W] with protein stability index of 3 or above?
0.0

Item LPALFTDRYSQEITAEEAREALP [L8R] with protein stability index of 3 or above?
0.0

Item LPALFTDLHSQEITAEEAREALP [Y9H] with protein stability index of 3 or above?
1.0

Item LPALFTDLYSQEITAEEAREAMP [L22M] with protein stability index of 3 or above?
0.0
